- system_name: human T-type calcium channels (human Cav3.2) (Homo sapiens)
- Construct: expressed in transfected cells
- Sequence (O95180 whole entry): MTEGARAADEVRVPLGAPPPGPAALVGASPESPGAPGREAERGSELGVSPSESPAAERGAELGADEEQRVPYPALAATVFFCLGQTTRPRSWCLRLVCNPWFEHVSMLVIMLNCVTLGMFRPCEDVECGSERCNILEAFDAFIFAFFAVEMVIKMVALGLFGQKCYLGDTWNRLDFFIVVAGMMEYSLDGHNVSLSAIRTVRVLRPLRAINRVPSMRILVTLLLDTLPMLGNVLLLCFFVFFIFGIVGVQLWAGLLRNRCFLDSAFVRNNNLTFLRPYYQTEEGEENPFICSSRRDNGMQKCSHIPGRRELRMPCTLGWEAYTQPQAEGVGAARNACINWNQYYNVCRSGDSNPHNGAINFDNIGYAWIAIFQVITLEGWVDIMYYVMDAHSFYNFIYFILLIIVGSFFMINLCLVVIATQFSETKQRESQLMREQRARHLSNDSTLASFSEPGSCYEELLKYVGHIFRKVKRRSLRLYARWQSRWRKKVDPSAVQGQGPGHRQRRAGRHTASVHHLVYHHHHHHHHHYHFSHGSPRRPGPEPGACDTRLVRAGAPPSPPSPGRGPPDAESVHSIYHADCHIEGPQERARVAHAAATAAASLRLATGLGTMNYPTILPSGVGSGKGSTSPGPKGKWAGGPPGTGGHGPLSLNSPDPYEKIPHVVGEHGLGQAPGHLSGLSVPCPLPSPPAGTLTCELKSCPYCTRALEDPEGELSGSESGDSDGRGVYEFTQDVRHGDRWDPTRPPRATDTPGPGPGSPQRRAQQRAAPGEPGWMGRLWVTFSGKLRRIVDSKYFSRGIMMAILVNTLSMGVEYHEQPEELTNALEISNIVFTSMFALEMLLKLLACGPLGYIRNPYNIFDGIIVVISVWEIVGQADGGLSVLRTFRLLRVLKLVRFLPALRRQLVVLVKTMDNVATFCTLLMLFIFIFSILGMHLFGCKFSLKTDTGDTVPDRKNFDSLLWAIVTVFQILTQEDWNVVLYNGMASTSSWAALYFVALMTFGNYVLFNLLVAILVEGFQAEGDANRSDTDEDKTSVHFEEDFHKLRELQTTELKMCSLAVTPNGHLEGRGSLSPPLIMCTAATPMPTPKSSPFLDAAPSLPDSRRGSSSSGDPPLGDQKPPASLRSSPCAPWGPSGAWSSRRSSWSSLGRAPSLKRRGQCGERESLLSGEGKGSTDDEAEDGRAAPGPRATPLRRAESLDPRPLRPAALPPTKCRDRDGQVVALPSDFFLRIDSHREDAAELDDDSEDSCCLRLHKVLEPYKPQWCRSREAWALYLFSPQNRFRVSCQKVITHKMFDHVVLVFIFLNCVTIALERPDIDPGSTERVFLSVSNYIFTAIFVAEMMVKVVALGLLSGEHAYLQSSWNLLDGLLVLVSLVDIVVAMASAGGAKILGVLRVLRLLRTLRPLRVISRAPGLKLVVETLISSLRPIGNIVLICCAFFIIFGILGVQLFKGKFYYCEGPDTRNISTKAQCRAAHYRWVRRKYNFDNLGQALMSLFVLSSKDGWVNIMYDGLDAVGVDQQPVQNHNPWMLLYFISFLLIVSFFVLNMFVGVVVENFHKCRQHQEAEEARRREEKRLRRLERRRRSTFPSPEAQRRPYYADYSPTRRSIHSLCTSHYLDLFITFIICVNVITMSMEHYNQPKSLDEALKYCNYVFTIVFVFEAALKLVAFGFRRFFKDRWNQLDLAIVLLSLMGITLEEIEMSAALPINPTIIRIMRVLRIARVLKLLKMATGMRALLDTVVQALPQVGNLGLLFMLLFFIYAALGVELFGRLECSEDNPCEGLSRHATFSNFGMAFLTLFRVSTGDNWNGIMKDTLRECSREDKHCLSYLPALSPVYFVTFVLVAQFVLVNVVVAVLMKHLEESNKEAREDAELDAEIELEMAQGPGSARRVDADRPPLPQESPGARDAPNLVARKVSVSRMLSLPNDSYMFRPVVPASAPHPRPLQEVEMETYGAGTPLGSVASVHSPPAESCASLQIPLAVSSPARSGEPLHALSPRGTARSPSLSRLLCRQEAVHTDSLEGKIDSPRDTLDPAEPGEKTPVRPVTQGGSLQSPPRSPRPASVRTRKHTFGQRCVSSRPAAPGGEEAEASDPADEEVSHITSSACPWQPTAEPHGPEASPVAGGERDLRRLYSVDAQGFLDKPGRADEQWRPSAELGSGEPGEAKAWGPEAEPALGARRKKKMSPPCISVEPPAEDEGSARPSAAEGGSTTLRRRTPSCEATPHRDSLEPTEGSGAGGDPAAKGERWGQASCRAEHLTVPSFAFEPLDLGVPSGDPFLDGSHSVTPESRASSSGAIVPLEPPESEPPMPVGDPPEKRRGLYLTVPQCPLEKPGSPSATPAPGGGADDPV
- test_protocol: Electrophysiological test (patch clamp method) in HEK293 cells stably expressing human Cav3.2
- Format: cell-based
- condition_parameters: auto-patch clamp, peak calcium current, holding potential -80 mV, pulse of -20 mV
endpoint_label: IC50 (µM)

Here's what some known entries look like.
> print(dat)
                                   molecule                               system.name  recorded.measurement
1  OC(c1ccc(OC(F)(F)F)cc1)c1nc2cc(F)ccc2[nH]1 (stereo not shown) [Example 1]  human T-type calcium channels (human Cav3.2) (Homo sapiens)                  1.92
2  CCOC(c1ccc(OC(F)(F)F)cc1)c1nc2cc(Cl)cnc2[nH]1 (stereo not shown) [Example 53]  human T-type calcium channels (human Cav3.2) (Homo sapiens)                  1.77

1 = CCOC(c1ccc(OC(F)(F)F)cc1)c1nc2cc(F)ccc2[nH]1 (stereo not shown) [Example 70]
2 = OC(c1ccc(OC(F)(F)F)cc1)c1nc2cc(Cl)cnc2[nH]1 (stereo not shown) [Example 44]
[ask] Between the entries labeled 1 and 2 , whose measured IC50 is lower? Could you answer with the label of the item you picked?
[reply] 2
(2: 1.01 µM, 1: 1.76 µM)
